Where do the numbers come from? From PubChem BioAssay (NCI).

Known growth inhibition of a selection of compounds
Test: NCI Yeast Anticancer Drug Screen. Data for the bub3 strain (AID 167)
Conditions: S. cerevisiae bub3 mutant strain, at 50.0 µM, stronger effect = higher value
The panel holds about 79,000 compounds, 15% with a hit somewhere; the sample as a whole holds those more often.
Measurement kind: growth inhibition (%)

[[record]]
compound = "COc1cc(-c2ccc(NC(=O)N3CC3)c(OC)c2)ccc1NC(=O)N1CC1"
reported_measurement = -0.4

[[record]]
compound = "C=C(Br)CN=CN(C)C"
reported_measurement = -10.1

[[record]]
compound = "CC(=O)Oc1c(C)n(C(C)=O)c2cc(Cl)ccc12"
reported_measurement = 6.15

[[record]]
compound = "COc1ccc(C(=O)O)cc1"
reported_measurement = -2.9

[[record]]
compound = "CC(O)CN=Cc1ccccc1 (configuration not stated)"
reported_measurement = -11.5

[[record]]
compound = "Cn1ncc2c(=O)[nH]c(-c3ccccc3)nc21"
reported_measurement = -3.05

[[record]]
compound = "CC(=O)N(C(C)=O)n1c(Cc2ccc(Cl)cc2)nn(C(C)=O)c1=O"
reported_measurement = 10.7

[[record]]
compound = "CC1=CCCCC1=O"
reported_measurement = -12.9

[[record]]
compound = "CC1c2ccccc2CC(CCN(C)C)c2ccccc21 (configuration not stated)"
reported_measurement = 28.6

[[record]]
compound = "Cc1ccccc1N1CC2CC3C=CC2(C1)O3 (configuration not stated)"
reported_measurement = 1.35

[[record]]
compound = "COC(=O)c1cc(-c2ccc(OC)cc2)[nH]c(=O)c1C#N"
reported_measurement = 26.1

[[record]]
compound = "C[C@H](CCC(=O)O)[C@H]1CC[C@H]2[C@@H]3[C@@H](O)C[C@@H]4C[C@H](O)CC[C@]4(C)[C@H]3C[C@H](O)[C@]12C"
reported_measurement = -14.7


====

Known growth inhibition of a selection of compounds
Experiment: NCI Yeast Anticancer Drug Screen. Data for the cln2 rad14 strain (AID 165);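 note: 0% = growth equal to vehicle treated cultures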
Details: S. cerevisiae cln2 rad14 strain, at 50.0 µM, stronger effect = higher value
Experimental: Growth inhibition of yeast strains with defined genetic alterations is measured as a screen for potential anti-cancer activity. Selected strains with alterations in DNA damage repair or cell cycle control were exposed to compounds and growth inhibition was measured relative to vehicle treated controls. The strain used in this assay is cln2 rad14
This is part of a sample that, as a whole, favours compounds with a hit. Of some 79,000 tested, about 15% had one in any assay.
Measurement kind: growth inhibition (%)

[[record]]
compound = "CCC1SCC(=O)N1c1nncs1 (configuration not stated)"
reported_measurement = -8.6

[[record]]
compound = "OC(c1cc2ccccc2c2ccccc12)C1CCCCN1 (configuration not stated)"
reported_measurement = 13.2

[[record]]
compound = "CC(C)(C)CC(C)(C)NS(=O)(=O)NC(C)(C)CC(C)(C)C"
reported_measurement = -57.3

[[record]]
compound = "CCOC(=O)NC(=O)c1cn(CCCOC(=O)CCCCCCCCCCC(=O)OCCCn2cc(C(=O)NC(=O)OCC)c(=O)n(C)c2=O)c(=O)n(C)c1=O"
reported_measurement = 15.3

[[record]]
compound = "CC/C(Cl)=N\\OC(=O)Nc1ccccc1OC(F)(F)F"
reported_measurement = -13.6

[[record]]
compound = "O=S1c2ccccc2NC(c2ccc3ccccc3c2)CC1c1ccccc1 (configuration not stated)"
reported_measurement = 1.9

[[record]]
compound = "CC1=CCC2N=C(c3ccccc3)CC2(C)C1=O (configuration not stated)"
reported_measurement = -11.3

[[record]]
compound = "CCCC(=N)OCC"
reported_measurement = -0.45

[[record]]
compound = "Cn1c(=O)c2c(ncn2CC(=O)O)n(C)c1=O"
reported_measurement = 6.7

[[record]]
compound = "CC1=NN(C(=O)c2ccccc2)C(=O)C1N=Nc1ccc([N+](=O)[O-])cc1 (configuration not stated)"
reported_measurement = -10.8

[[record]]
compound = "CCCC(=O)Nc1ccccc1"
reported_measurement = 7

[[record]]
compound = "CN1C2CC(=O)CC1[C@@H]1OC(c3ccccc3)O[C@H]21 (some centres not stated)"
reported_measurement = 27.9

[[record]]
compound = "COc1ccc(NC(C)=O)cc1C1CCC(=O)N1 (configuration not stated)"
reported_measurement = 10.1

[[record]]
compound = "O=C(Nc1cccc(Cl)c1)c1ccc(Cl)cc1"
reported_measurement = -12.9

[[record]]
compound = "CC1(C(=O)O)CCCN1 (configuration not stated)"
reported_measurement = 15.4

[[record]]
compound = "CCSCCCCSCC"
reported_measurement = 3.35

[[record]]
compound = "CCOC(=O)/C(=C\\c1cccc(F)c1)C(C)=O"
reported_measurement = -4.9

[[record]]
compound = "CCCCC1c2c([nH]c3ccccc23)C2C(=O)N(c3ccc(OC)cc3)C(=O)C2C1CCC (configuration not stated)"
reported_measurement = -27.5

[[record]]
compound = "Cc1ccc(S(=O)(=O)N/N=C2\\CCC3(C)C(CCC4C3CCC3(C)C(C(C)CCCC(C)C)CCC43)C2)cc1 (configuration not stated)"
reported_measurement = 27.6

[[record]]
compound = "CC[n+]1c(COCCOc2ccccc2)sc2cc3c(cc21)OCO3"
reported_measurement = 12

[[record]]
compound = "COC(=O)c1sc(N2CCCC2)nc1N"
reported_measurement = -1.3

[[record]]
compound = "CCCCOCCOCCO"
reported_measurement = -14.7

[[record]]
compound = "c1ccc(CCCC2Sc3cccc4cccc(c34)S2)cc1"
reported_measurement = 14.4

[[record]]
compound = "O=C1c2ccccc2CC12Cc1cc3c(cc1C2=O)CCC3 (configuration not stated)"
reported_measurement = 25.5

[[record]]
compound = "O=c1[nH]c2c(Cl)cccc2c2ccccc12"
reported_measurement = -18.1

[[record]]
compound = "CC(N(C)Cc1ccccc1)C(C)(O)c1ccccc1 (configuration not stated)"
reported_measurement = -24.9

[[record]]
compound = "C=C(S(=O)(=O)CC)S(=O)(=O)CC"
reported_measurement = -53

[[record]]
compound = "Cc1ccccc1C(=O)NNC(=O)c1ccc2ccccc2c1"
reported_measurement = 9.35

[[record]]
compound = "O=C(O)c1ccccc1C(=O)OCC1CCc2ccccc2C1 (configuration not stated)"
reported_measurement = 33

[[record]]
compound = "O=C1ON(c2ccccc2)C(c2cccc(Cl)c2)N1c1ccccc1 (configuration not stated)"
reported_measurement = 3.25

[[record]]
compound = "COc1ccc2c(c1)C(=O)CC(C(N)=O)C2 (configuration not stated)"
reported_measurement = 3.6

[[record]]
compound = "COc1ccc(Cc2ccc(CO)cc2)cc1"
reported_measurement = -20

[[record]]
compound = "Nc1nc(N)c2c(n1)Nc1ccc(Cl)nc1S2"
reported_measurement = 52.2

[[record]]
compound = "O=S(=O)(CS(=O)(=O)c1ccccc1Br)c1ccccc1Br"
reported_measurement = 13

[[record]]
compound = "Cc1ccc(/C=N/NC(N)=S)c(C)c1"
reported_measurement = -30.9

[[record]]
compound = "c1ccc2c3c(ccc2c1)Oc1ccc2ccccc2c1C3CCC1c2c(ccc3ccccc23)Oc2ccc3ccccc3c21"
reported_measurement = 1.5

[[record]]
compound = "Cn1ncc2c(=O)[nH]c(-c3ccccc3)nc21"
reported_measurement = 3.55

[[record]]
compound = "NNC(=O)c1ccccc1F"
reported_measurement = -4.7

[[record]]
compound = "CC(=O)[O][Ga]([Br])[O]C(C)=O"
reported_measurement = 14.4

[[record]]
compound = "CCCCCCCCCCCC(=O)O"
reported_measurement = -7.45

[[record]]
compound = "CCC1(CC)C(=O)OC(=O)C1(CC)CC"
reported_measurement = -8.2

[[record]]
compound = "Nc1c(Br)cc(Br)c(C(=O)O)c1Br"
reported_measurement = 2.8

[[record]]
compound = "CC(=O)OCCOC1c2ccccc2-c2ccccc21"
reported_measurement = 18.6

[[record]]
compound = "O=[N+]([O-])c1cc2c3ccccc3ccc2c2ccccc12"
reported_measurement = -78.8

[[record]]
compound = "Cc1ncn(-c2ccccc2)c(=O)c1N=Cc1ccccc1"
reported_measurement = -8.85

[[record]]
compound = "Cc1ccc(-n2c(=S)n(-c3ccccc3C)c3nc4ccccc4nc2/c3=N\\Nc2ccccc2)cc1"
reported_measurement = -16.1

[[record]]
compound = "CCOC(=O)NC(C)(C)CC(C)(C)C"
reported_measurement = 11.9

[[record]]
compound = "CCCCCCC1(C=O)C(=O)NC(=O)N1C (configuration not stated)"
reported_measurement = 13.3

[[record]]
compound = "COc1cc(C(C)c2cc3c(cc2O)OCO3)cc(OC)c1OC (configuration not stated)"
reported_measurement = 8.5

[[record]]
compound = "Cc1cc(N)cc(C)n1"
reported_measurement = 0.7

[[record]]
compound = "OC[C@@H](O)[C@H]1NC[C@@H](O)[C@H]1O"
reported_measurement = 7.7

[[record]]
compound = "[N-]=[N+]=CC(=O)C1OC1c1ccc(Br)cc1 (configuration not stated)"
reported_measurement = 24.4

